Numbers sourced from patent US20210301026A1.

test-system: T1, monomeric cynomolgus monkey CSF1R ectodomain protein (cynomolgus monkey, UniProt P07333 20-517 (human entry))
T1 construct: also called monomeric cyno CSF1R; Cyno CSF1R
T1 chain: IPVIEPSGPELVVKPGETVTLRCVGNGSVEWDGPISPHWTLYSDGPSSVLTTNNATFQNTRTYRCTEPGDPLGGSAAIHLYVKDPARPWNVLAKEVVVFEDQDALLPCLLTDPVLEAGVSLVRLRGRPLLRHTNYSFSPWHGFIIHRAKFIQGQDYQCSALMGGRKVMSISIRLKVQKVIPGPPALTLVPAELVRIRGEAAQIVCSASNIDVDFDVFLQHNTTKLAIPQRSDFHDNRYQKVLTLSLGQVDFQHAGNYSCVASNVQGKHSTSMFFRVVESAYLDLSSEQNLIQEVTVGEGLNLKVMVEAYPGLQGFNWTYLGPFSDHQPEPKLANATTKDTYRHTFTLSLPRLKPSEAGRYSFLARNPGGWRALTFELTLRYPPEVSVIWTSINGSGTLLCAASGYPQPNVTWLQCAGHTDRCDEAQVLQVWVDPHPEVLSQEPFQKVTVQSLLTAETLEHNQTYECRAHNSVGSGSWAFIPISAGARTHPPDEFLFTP
assay: SPR Biacore, IgG captured, monomeric CSF1R analyte
koff values for the binders below.
Write it as a number; the unit s⁻¹ goes unstated.

Q. koff for 29D10 (antibody, human IgG4, V domains shown, Library-derived clone, tested as human IgG4(S228P)/Ckappa IgG; framework residue limits counted on the grafts) VH: QVQLVQSGAEVKKPGSSVKVSCKASGYTFTSYYMIWVRQAPGQGLEWMGDINPYNGGANFAQKFQGRVTITADESTSTAYMELSSLRSEDTAVYYCAREGPYFSNLYVMDYWGQGTLVTVSS VL: EIVLTQSPATLSLSPGERATLSCRASQSVSYEGENYLNWYQQKPGQAPRLLIYAASNRATGIPARFSGSGSGTDFTLTISSLEPEDFAVYYCQLSNEDLLTFGGGTKVEIK ?
A. 0.00022

Q. Which koff value is on record for 29H09 (antibody, human IgG4, V domains shown, Library-derived clone, tested as human IgG4(S228P)/Ckappa IgG; framework residue limits counted on the grafts) VH: QVQLVQSGAEVKKPGSSVKVSCKASGYTFTSYYMIWVRQAPGQGLEWMGDINPYNGGANYAQKFQGRVTITADESTSTAYMELSSLRSEDTAVYYCAREGPYFSNLYVMDYWGQGTLVTVSS VL: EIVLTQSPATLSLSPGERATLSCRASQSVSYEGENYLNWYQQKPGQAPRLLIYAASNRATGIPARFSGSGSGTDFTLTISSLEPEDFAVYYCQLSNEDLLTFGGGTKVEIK ?
A. 0.00023

Q. Need koff, item 29B07 (antibody, human IgG4, V domains shown, Library-derived clone, tested as human IgG4(S228P)/Ckappa IgG; framework residue limits counted on the grafts) VH: QVQLVQSGAEVKKPGSSVKVSCKASGYTFTSYYIIWVRQAPGQGLEWMGDINPYNGGATYAQKFQGRVTITADESTSTAYMELSSLRSEDTAVYYCAREPPYFSNLYVMDYWGQGTLVTVSS VL: EIVLTQSPATLSLSPGERATLSCRASQSVEYEGDNYLNWYQQKPGQAPRLLIYAASNRATGIPARFSGSGSGTDFTLTISSLEPEDFAVYYCQLSNQDLLTFGGGTKVEIK
A. 0.00025

Q. Using the record for MH4 (antibody, V domains shown, Designer clone, human IgG4(S228P)/Ckappa IgG) VH: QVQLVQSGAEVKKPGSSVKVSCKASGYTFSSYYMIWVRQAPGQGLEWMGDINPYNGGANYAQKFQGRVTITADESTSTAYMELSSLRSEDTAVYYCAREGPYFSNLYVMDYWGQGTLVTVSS VL: EIVLTQSPATLSLSPGERATLSCRASQSVSYQGENYLAWYQQKPGQAPRLLIYDASNRATGIPARFSGSGSGTDFTLTISSLEPEDFAVYYCQLSNQDLLTFGGGTKVEIK , report its koff.
A. 0.0014

Q. Quick one: koff for MH5 (antibody, human IgG4, V domains shown, Designer (maximally humanized) clone; tested as human IgG4(S228P)/Ckappa IgG; also called mAb-2) VH: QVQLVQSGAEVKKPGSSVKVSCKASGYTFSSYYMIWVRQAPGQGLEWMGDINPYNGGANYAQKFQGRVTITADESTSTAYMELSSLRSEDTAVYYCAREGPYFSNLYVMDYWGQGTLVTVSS VL: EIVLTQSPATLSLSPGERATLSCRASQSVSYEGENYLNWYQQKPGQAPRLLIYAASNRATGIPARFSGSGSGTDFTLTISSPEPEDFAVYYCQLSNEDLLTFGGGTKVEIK ?
A. 0.00031

Q. Quick one: koff for 26B07 (antibody, human IgG4, V domains shown, Library-derived clone, tested as human IgG4(S228P)/Ckappa IgG; framework residue limits counted on the grafts) VH: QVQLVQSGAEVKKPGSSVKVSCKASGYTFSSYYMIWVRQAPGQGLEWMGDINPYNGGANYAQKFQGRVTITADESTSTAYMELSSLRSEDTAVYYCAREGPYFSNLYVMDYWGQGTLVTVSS VL: EIVLTQSPATLSLSPGERATLSCRASQSVEYQGDNYLNWYQQKPGQAPRLLIYAASNRATGIPARFSGSGSGTDFTLTISSLEPEDFAVYYCQLSNEDLLTFGGGTKVEIK ?
A. 0.00026
